Can you tell me Blocking (OD) for the items I'm about to list?
Target: human CD47 (hCD47) (human, UniProt Q08722 19-139, limits assumed)
Sequence (Q08722 19-139 limits assumed): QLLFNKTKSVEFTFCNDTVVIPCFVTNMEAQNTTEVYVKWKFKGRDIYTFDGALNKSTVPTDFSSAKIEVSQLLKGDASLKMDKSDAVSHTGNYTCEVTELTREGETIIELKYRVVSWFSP
Experiment: blocking ELISA, coated hCD47 ECD Fc, supernatant + biotin-SIRPα ECD His
Expressed in OD, but write only the number.

**Q:** Item 4RP13-3-11A (designed binder, tested as bacterial supernatant; also called S-2; hSIRPα-mt3 (IgV domain)) hSIRPα IgV domain mutant: EEELQVIQPDKSVSVAAGESAILHCTVTSLWPVGPIQWFRGAGPARELIYNQKAWPFPRVTTVSESTKRENMDFSISISNITPADAGTYYCVKFRKGSPDTEFKSGAGTELSVRAKPS has what recorded Blocking (OD)?
**A:** 0.319

**Q:** Item 4RP13-3-4D (designed binder, tested as bacterial supernatant; also called S-11; hSIRPα-mt11 (IgV domain)) hSIRPα IgV domain mutant: EEELQVIQPDKSVSVAAGESAILHCTVTSLLPVGPIQWFRGAGPARELIYNQKSKVFPRVTTVSESTKRRNMDFSISISNITPADAGTYYCVKFRKGSPDTEFKSGAGTELSVRAKPS has what recorded Blocking (OD)?
**A:** 0.229

**Q:** Item 4RP13-1-7A (designed binder, tested as bacterial supernatant; also called S-19; hSIRPα-mt8 (IgV domain)) hSIRPα IgV domain mutant: EEELQVIQPDKSVSVAAGESAILHCTVTSLKPVGPIQWFRGAGPARELIYNQKRDTFPRVTTVSESTKRENRDFSISISNITPADAGTYYCVKFRKGSPDTEFKSGAGTELSVRAKPS has what recorded Blocking (OD)?
**A:** 0.215

**Q:** Item 4RP13-4-5C (designed binder, tested as bacterial supernatant; also called S-21; hSIRPα-mt5 (IgV domain)) hSIRPα IgV domain mutant: EEELQVIQPDKSVSVAAGESAILNCTVTSLIPVGPIQWFRGAGPARELIYNQKHQTFPRVTTVSEQTKRENRDFSISISNITPADAGTYYCVKFRKGSPDTEFKSGAGTELSVRAKPS has what recorded Blocking (OD)?
**A:** 0.21
